Reference source for all entries: PubChem BioAssay (NCI)

tested on: UACC-62 melanoma; experiment: NCI-60 one-dose screen, 48 h; conditions: 10 µM unless noted
The panel holds about 83,000 compounds, 20% with a hit somewhere; the sample as a whole holds those more often. Active and inactive are the calls of the source. How the source made its calls: active means growth percent below 10; inactive means the rest.
Hi there, use one of these labels in your reply, thanks! 1 for active, 0 for inactive

Incoming: Can you look up the reported call for O=C1C(=C(O)c2ccccc2)C(=O)c2ccccc21 for me?
Outgoing: 0

Incoming: Entry to check: COc1c(O)c(O)cc2c3c(oc12)CC(c1ccc2c(c1)OCO2)CC3=O (stereo not given)
Outgoing: 1

Incoming: Please do the same for O=C(Nc1ccccc1C(=O)N/N=C(\c1ccccc1)c1ccccn1)c1ccccc1 as well.
Outgoing: 1

Incoming: And the next one, Cc1ccc(Cl)cc1N1CCN(C(=O)[C@@H]2C[C@@H]2c2ccc(F)cc2)CC1 ?
Outgoing: 0

Incoming: Proceed to O=C(CCl)n1nnnc1Cc1ccccc1
Outgoing: 0

Incoming: Now this one: CN1CCN(CCNC(=O)c2cccc(CN3c4cccc5c4C(=Cc4cccnc43)N(C)C5=O)c2)CC1
Outgoing: 0

Incoming: # iterate: O=C(CCCCCCCCC(=O)N/N=C\c1ccccc1O)N/N=C\c1ccccc1O
Outgoing: 1

Incoming: Now give it for CC1=CC=C(NC(=O)/C=C/c2ccccc2)CC1Nc1nccc(-c2cccnc2)n1 (stereo not given) too.
Outgoing: 0

Incoming: Then what about the molecule CCN(CC)CC#CCOC(=O)[C@]1(C)CCC[C@]2(C)c3ccc(C(C)C)cc3CC[C@@H]12 ?
Outgoing: 0

Incoming: Now try COc1ccc(-c2c[nH]c(C(=O)O)c2-c2cc(OC)c(OC)c(OC)c2)cc1 .
Outgoing: 0

Incoming: Please give the result for COc1ccc(-c2nc(Cl)c3c(C)nn(-c4ccc(F)cc4)c3n2)cc1 too.
Outgoing: 0

Incoming: Subsequent entry: CCN(c1cc(-c2ccc(CN3CCC(/C=C/S(=O)(=O)c4ccccc4)CC3)cc2)cc(C(=O)NCc2c(C)cc(C)[nH]c2=O)c1C)C1CCOCC1
Outgoing: 0

Incoming: // repeat for Clc1ccc(CNc2ccc3nc(CCC4CCCCC4)[nH]c3c2)cc1 and report
Outgoing: 0

Incoming: Same question, COc1cc(-c2nn(-c3cccc(NC(=O)CCN4CCN(C)CC4)c3)cc2-c2ccncc2)ccc1Cl this time
Outgoing: 0

Incoming: Next entry: CC(C)(C)c1cc(C(C)(C)c2ccccc2)cc(Cc2cc(C(C)(C)c3ccccc3)cc(C(C)(C)C)c2O)c1O
Outgoing: 0

Incoming: What do we get for CCCCC1COc2cccc3c2N1C=C/C3=C\C(=O)N(C)c1cccc(Cl)c1 (stereo not given) ?
Outgoing: 0

Incoming: Let us now turn to CN(C)CCCn1c2nc(=O)[nH]c(=O)c-2nc2cc(Cl)c(Cl)cc21
Outgoing: 0

Incoming: Try O=C(NNC(=S)Nc1ccccc1)c1ccncc1 next.
Outgoing: 0

Incoming: Now give it for O=C(/C=C/c1ccc([N+](=O)[O-])cc1)c1ccccc1 too.
Outgoing: 0

Incoming: Similarly, O=C1/C(=C/c2ccc(-c3cccc(C(F)(F)F)c3)o2)SC(=S)N1CCc1ccc(O)cc1 ?
Outgoing: 0

----------
Please provide measured growth for the entries that follow.
System: HCT-116 colon
Experiment: NCI-60 one-dose screen, 48 h (100 = growth as untreated, 0 = no growth, -100 = all killed)
Details: 10 µM unless noted
Protocol: Growth inhibition of the HCT-116 human tumor cell line is measured as a screen for anti-cancer activity. Cells are grown in 96 well plates and exposed to the test compound for 48 hours. Compounds are tested at a single concentration, which is 10^-5 M for most compounds. The reported endpoint is percent growth (GI% or GIPRCNT), where numbers from 0 - 100% represent growth inhibition, and numbers from -100% - 0 represent cell death. For example, a value of 40 represents 60% growth inhibition. […]
Compounds without any hit were thinned out: in the full panel of roughly 83,000, 20% have a hit.
Provide only the numeric value, understood in %.

Incoming: Recorded growth for Nc1ccc(-c2ccc(N)c(Br)c2)cc1Br , please?
Outgoing: 23.6

Incoming: Again, but for CCCCCCCCCCCCCCCCCCn1cc(COc2ccc(C=O)cc2)nn1
Outgoing: 76.8

Incoming: One more compound: CC[C@]12CN3CCc4c([nH]c5ccccc45)[C@@](C(=O)OC)(c4cc5c(cc4OC)N(C)[C@H]4[C@@](O)(C(=O)OC)[C@H](OC(C)=O)[C@]6(CC)C=CCN7CC[C@]54[C@@H]76)CC(C3)[C@H]1O2 (some centres undefined)
Outgoing: 0.479

Incoming: Next entry: C[N+]1=C(/C=C\C=C\c2ccccc2)C(C)(C)c2ccccc21
Outgoing: 14.3

Incoming: // next record O=C(CN1C(=O)S/C(=C\C(Cl)=C\c2ccccc2)C1=O)NCCCn1ccnc1
Outgoing: -57.2

Incoming: Proceed to Cc1c(CC(=O)OCCO)cc(-c2ccc(Cl)cc2)n1-c1ccccc1
Outgoing: 102

Incoming: Try [Cu+].[NH-][C@H]1C[N-]C(=O)[C@H]([C@H]2CCN=C(N)N2)[N-]C(=O)/C(=C\NC(N)=O)[N-]C(=O)[C@H](CNC(=O)C[C@@H](N)CCCN)[N-]C(=O)[C@H](CO)[N-]C1=O next.
Outgoing: 97.4

Incoming: Let us now turn to Nc1ccc(-c2nc3ccc4[nH]ncc4c3c3c2CCCC3)cc1F
Outgoing: 11.1

Incoming: Same again, this time with COCCOc1cc2ncnc(N3CCN(S(=O)(=O)c4ccccc4Cl)CC3)c2cc1OCCOC
Outgoing: 89.7

Incoming: Field entry: N=c1c2c(-c3ccccc3)c(-c3ccccc3)oc2ncn1NC(=O)c1cccnc1
Outgoing: 96.1

Incoming: Quick one: Cc1ccc(NC(=O)N/C(N)=N/c2nc(=O)c3ccccc3s2)cc1
Outgoing: 94.1

Incoming: Next compound: O=C(/C=C/c1ccc([N+](=O)[O-])cc1)c1ccccc1
Outgoing: 17

Incoming: Also, CC(=O)N1N=C(c2ccc(F)cc2)CC1c1sc(N(C)Cc2ccccc2)nc1Cl (centres undefined) please.
Outgoing: 84.5

Incoming: Request: COC(=O)N/N=C/c1c[n+]([O-])c2ccccc2[n+]1[O-]
Outgoing: 104

Incoming: Would you mind doing Fc1ccc(NC(c2ccc(F)cc2)C2CCN(CCCCc3ccccc3)CC2)cc1 (centres undefined) as well?
Outgoing: -55.4

Incoming: Next: COc1c(O)c(O)cc2c3c(oc12)CC(c1ccc2c(c1)OCO2)CC3=O (centres undefined)
Outgoing: 32.1

Incoming: How about CCCN1C(=O)/C(=c2\sc3n(c2=O)NC2C(N=3)N(CC)C(=O)N2CC)c2ccccc21 (centres undefined) ?
Outgoing: 15.6

Incoming: Try this compound next: N=C(N)SCc1c2ccccc2c(CSC(=N)N)c2ccccc12
Outgoing: 40.4

Incoming: Now the compound CON1CCC[C@]2(C)[C@H]3CC[C@@H]4[C@H]5[C@@H](O)C(C)(C)CC[C@]5(CO)CC[C@@]4(C)[C@]3(C)CC[C@H]2C1(C)C
Outgoing: 88.6

Incoming: Same read-out for CCc1c2c(nc3ccc(OCc4ccc(B5OC(C)(C)C(C)(C)O5)cc4)cc13)-c1cc3c(c(=O)n1C2)COC(=O)[C@]3(O)CC ?
Outgoing: 2.03

Incoming: Same thing, different compound: Cc1nc(-n2[nH]c(=O)ccc2=O)sc1N=Nc1ccccc1
Outgoing: 97.5

Incoming: And the next one, O=C(/C=C/c1cccs1)Nc1ncc(Cc2ccc(Cl)c(Cl)c2)s1 ?
Outgoing: 45.2

Incoming: Check N#CC(Cc1cccc2ccccc12)c1cc2ccccc2[nH]1 (centres undefined) too.
Outgoing: 83.7

Incoming: Please answer likewise for Cc1nc2sc(C(=O)Nc3cccc4ccccc34)c(N)c2cc1C(=O)/C=C/c1ccccc1
Outgoing: -52.8

Incoming: Same thing, different compound: Nc1n[nH]c2cccc(C#Cc3cccc(C(=O)Nc4ccc(CN5CCOCC5)c(C(F)(F)F)c4)c3)c12
Outgoing: 13.3

Incoming: // next record CCCCCC#CC1OC23CCCCC2C(C#N)(C(=N)O3)C1(C#N)C#N (centres undefined)
Outgoing: 89.2

Incoming: Could you do the same for O=[N+]([O-])c1cc(C(F)(F)F)ccc1Sc1ccc(C(F)(F)F)cc1[N+](=O)[O-] , please?
Outgoing: 10.7

Incoming: # iterate: CC[C@@H]1NC(=O)[C@H]([C@H](O)[C@H](C)C/C=C/c2ccc(CN3C(=O)C(C)=C(C)C3=O)cc2)N(C)C(=O)[C@H](C(C)C)N(C)C(=O)[C@H](CC(C)C)N(C)C(=O)[C@H](CC(C)C)N(C)C(=O)[C@@H](C)NC(=O)[C@H](C)NC(=O)[C@H](CC(C)C)N(C)C(=O)[C@H](C(C)C)NC(=O)[C@H](CC(C)C)N(C)C(=O)CN(C)C1=O
Outgoing: 54.8

Incoming: Request: O=S(=O)(O)c1ccc(N=Nc2ccc(N=Nc3cccc4ccccc34)c(S(=O)(=O)O)c2)cc1
Outgoing: 102

Incoming: Another compound: COc1ccc2c(c1)CCNC21C(=O)Nc2c(Br)cc(Br)cc21 (centres undefined)
Outgoing: 103

Incoming: Please answer likewise for C=C1C(=O)O[C@H]2[C@H]1CC/C(COC(=O)NCCCCNC(=O)OC/C1=C/CC[C@@]3(C)O[C@H]3[C@H]3OC(=O)C(=C)[C@@H]3CC1)=C\CC[C@@]1(C)O[C@@H]21
Outgoing: -65.2

Incoming: And the next one, Cc1ccc(/C=C(\C#N)c2cc3ccccc3[nH]2)cc1 ?
Outgoing: 32.5

Incoming: Param item: O=C(Nc1ncc(Cc2cccc(C(F)(F)F)c2)s1)c1ccc(-n2cnnn2)cc1
Outgoing: 42.4

Incoming: Would you kindly repeat that for O=C1/C(=C/c2cn(-c3ccccc3)nc2-c2ccccc2)SC(=S)N1c1ccccc1 ?
Outgoing: 102
